meta.source: ChEMBL document CHEMBL1153877

- Test system: Salmonella typhimurium
- procedure.text: Ratio of number of revertant per nmol of drug for Salmonella Typhimurium YG1042 to number of revertant per nmol of drug for Salmonella Typhimurium TA100
- Format: toxicity, organism-based
- conditions.used: salmonella enterica subsp. enterica serovar typhimurium
observable: Ratio

>>> df
                                   compound   val
0  Cc1nc(CS(=O)(=O)c2ccc(Cl)cc2)c([N+](=O)[O-])n1CC(C)O (stereo not drawn)   1.7
1  Cn1cnc(CS(=O)(=O)c2ccc(F)cc2)c1[N+](=O)[O-]   4.5
2   Cc1ncc([N+](=O)[O-])n1C [DIMETRIDAZOLE]  10.3
3  Cc1nc(CS(=O)(=O)c2ccc(Cl)cc2)c([N+](=O)[O-])n1CCO   2.4
4  Cn1cnc(CS(=O)(=O)c2ccc(Br)cc2)c1[N+](=O)[O-]     4
5  Cc1ccc(S(=O)(=O)Cc2nc(C)n(CCO)c2[N+](=O)[O-])cc1   1.3
6  Cn1cnc(CS(=O)(=O)c2ccccc2)c1[N+](=O)[O-]   3.5
7  Cc1nc(CS(=O)(=O)c2ccccc2)c([N+](=O)[O-])n1CCO   4.9
